Test system: Mycobacterium tuberculosis
testName: Growth inhibition of Mycobacterium bovis BCG ATCC 35743 at 1 ug/ml by nitrate reductase based two-fold dilution assay relative to control
Assay type: functional
conditionParameters: BCG str. ATCC 35743, read-out: GI
propertyName: inhibition of growth at 1 µg/mL

smilesdata=Cc1nc(-c2ccc(F)cc2)oc1-c1csc(-c2ccccc2)n1 testedon="Mycobacterium tuberculosis" propertyname="inhibition of growth at 1 µg/mL" value=28%
smilesdata=Cc1ccc(-c2nc(-c3oc(-c4ccccc4)nc3C)cs2)cc1 testedon="Mycobacterium tuberculosis" propertyname="inhibition of growth at 1 µg/mL" value=25%
smilesdata=Cc1nc(-c2ccccc2)oc1-c1csc(-c2cccc(Cl)c2)n1 testedon="Mycobacterium tuberculosis" propertyname="inhibition of growth at 1 µg/mL" value=26%
smilesdata=Cc1nc(-c2ccccc2)oc1-c1csc(Cc2cccc(Cl)c2)n1 testedon="Mycobacterium tuberculosis" propertyname="inhibition of growth at 1 µg/mL" value=94%
smilesdata=Cc1nc(-c2ccc(F)cc2)oc1-c1csc(Cc2ccccc2)n1 testedon="Mycobacterium tuberculosis" propertyname="inhibition of growth at 1 µg/mL" value=97%

# query: inhibition of growth at 1 µg/mL of entry Cc1nc(-c2ccc(F)cc2)oc1-c1csc(Cc2ccc(F)cc2)n1 93%

# query: inhibition of growth at 1 µg/mL of entry Cc1nc(-c2ccc(F)cc2)oc1-c1csc(Cc2ccc(Cl)cc2)n1 24%
